# system name: hα4 and β1 integrins (VLA-4) (Homo sapiens, UniProt P05556+P13612)
# Sequence (P13612 34-1032): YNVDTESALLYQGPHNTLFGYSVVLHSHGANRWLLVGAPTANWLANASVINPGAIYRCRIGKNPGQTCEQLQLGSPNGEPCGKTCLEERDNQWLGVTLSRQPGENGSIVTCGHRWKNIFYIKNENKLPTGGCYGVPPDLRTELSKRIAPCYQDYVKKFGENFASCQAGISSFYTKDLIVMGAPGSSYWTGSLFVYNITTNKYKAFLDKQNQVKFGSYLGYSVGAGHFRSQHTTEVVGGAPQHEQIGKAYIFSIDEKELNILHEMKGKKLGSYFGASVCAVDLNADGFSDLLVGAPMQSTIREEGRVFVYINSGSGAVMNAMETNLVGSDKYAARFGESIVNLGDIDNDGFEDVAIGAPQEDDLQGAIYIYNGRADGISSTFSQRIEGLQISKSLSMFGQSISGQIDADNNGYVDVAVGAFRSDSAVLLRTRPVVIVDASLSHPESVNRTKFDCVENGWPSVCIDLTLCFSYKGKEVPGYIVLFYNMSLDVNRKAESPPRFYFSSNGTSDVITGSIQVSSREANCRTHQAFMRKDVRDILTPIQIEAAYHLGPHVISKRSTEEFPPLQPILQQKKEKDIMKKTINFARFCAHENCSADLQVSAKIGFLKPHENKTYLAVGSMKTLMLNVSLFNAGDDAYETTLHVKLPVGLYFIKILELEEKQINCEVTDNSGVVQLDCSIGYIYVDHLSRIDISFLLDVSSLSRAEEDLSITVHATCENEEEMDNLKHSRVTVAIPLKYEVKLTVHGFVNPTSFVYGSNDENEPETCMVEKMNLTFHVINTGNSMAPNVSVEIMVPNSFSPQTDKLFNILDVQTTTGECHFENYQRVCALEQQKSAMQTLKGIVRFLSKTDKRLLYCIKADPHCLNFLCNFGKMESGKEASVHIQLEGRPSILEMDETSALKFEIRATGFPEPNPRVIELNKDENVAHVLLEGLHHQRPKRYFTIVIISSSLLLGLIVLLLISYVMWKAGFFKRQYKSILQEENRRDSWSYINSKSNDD
# Sequence (P05556 21-798): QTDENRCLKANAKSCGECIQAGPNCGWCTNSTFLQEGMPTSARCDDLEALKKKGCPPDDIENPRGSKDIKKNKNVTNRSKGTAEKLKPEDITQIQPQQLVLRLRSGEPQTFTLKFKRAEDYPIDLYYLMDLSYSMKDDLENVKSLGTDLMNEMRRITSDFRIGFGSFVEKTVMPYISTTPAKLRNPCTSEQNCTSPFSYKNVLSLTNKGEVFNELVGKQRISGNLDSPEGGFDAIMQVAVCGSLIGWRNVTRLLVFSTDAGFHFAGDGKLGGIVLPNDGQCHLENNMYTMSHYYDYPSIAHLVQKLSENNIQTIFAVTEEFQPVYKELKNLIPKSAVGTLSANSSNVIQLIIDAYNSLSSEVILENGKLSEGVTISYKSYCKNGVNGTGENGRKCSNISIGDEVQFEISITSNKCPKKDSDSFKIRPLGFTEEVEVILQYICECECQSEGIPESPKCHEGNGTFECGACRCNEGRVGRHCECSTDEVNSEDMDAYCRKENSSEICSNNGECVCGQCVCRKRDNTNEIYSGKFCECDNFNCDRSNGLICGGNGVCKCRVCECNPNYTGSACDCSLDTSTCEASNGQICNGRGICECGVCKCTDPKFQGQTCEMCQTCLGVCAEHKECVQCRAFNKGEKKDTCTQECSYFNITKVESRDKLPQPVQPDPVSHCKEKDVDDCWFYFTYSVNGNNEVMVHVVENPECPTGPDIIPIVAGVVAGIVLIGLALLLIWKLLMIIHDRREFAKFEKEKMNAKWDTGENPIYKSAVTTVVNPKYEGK
# protocol description: In vitro evaluation: inhibition of binding of CHO cells expressing hα4 and β1 integrins to Eu3+-hVCAM-1 D1D7-IgG
# conditions used: ligand Eu3+-hVCAM-1 D1D7-IgG 2 nM, Ki calculated from IC50
endpoint name: log10 of Ki (log10 of the value in nM)
Could you please treat all values as log10 of Ki in nM?

So, CCOC[C@@H]1CC[C@@H](c2ncc(CCC(=O)O)s2)N1C(=O)Cc1cc(Cl)c(NC(=O)c2coc3ccccc23)cc1F [Example 50] ? Its log10 of Ki was 1.71

So, CCO[C@H]1CCN(C(=O)Cc2cc(Cl)c(NC(=O)c3coc4ccccc34)cc2Cl)[C@@H]1c1ncc(CCC(=O)O)o1 [Example 102] ? Its log10 of Ki was 1.23

So, COC[C@@]1(c2ncc(CCC(=O)O)s2)C[C@H](OC)CN1C(=O)Cc1cc(Cl)c(NC(=O)c2cn(C)c3ccccc23)cc1Cl [Example 133] ? Its log10 of Ki was 0.65

So, C[C@@H]1CN([C@H]2C[C@@H](c3ncc(CCC(=O)O)s3)N(C(=O)Cc3cc(Cl)c(NC(=O)c4cn(C)c5ccccc45)cc3Cl)C2)C[C@H](C)O1 [Example 86] ? Its log10 of Ki was 0.00

So, CC(C)O[C@H]1C[C@@H](c2ncc(CCC(=O)O)s2)N(C(=O)Cc2cc(Cl)c(NC(=O)c3cn(C)c4ccccc34)cc2F)C1 [Example 35] ? Its log10 of Ki was 0.48

So, CO[C@H]1C[C@@H](c2ncc(CCC(=O)O)s2)N(C(=O)Cc2cc(Cl)c(Nc3nc4ccccc4s3)cc2Cl)C1 [Example 112] ? Its log10 of Ki was 0.28

So, COc1ccccc1Nc1nc2ccc(CC(=O)N3C[C@@H](F)C[C@H]3c3ncc(CCC(=O)O)s3)c(F)c2o1 [Example 23] ? Its log10 of Ki was -0.46

So, COc1ccccc1Nc1nc2ccc(CC(=O)N3C[C@@H](OC)C[C@H]3c3ncc(CCC(=O)O)o3)c(F)c2o1 [Example 17] ? Its log10 of Ki was 1.18

So, O=C(O)CCc1cnc([C@@H]2C[C@H](N3CCC(F)(F)CC3)CN2C(=O)Cc2cc(Cl)c(NC(=O)c3csc4ccccc34)cc2F)s1 [Example 75] ? Its log10 of Ki was -0.33

So, COC[C@@H]1CC[C@@H](c2ncc(CCC(=O)O)s2)N1C(=O)Cc1cc(Cl)c(NC(=O)c2csc3ccccc23)cc1F [Example 55] ? Its log10 of Ki was 1.23

So, CON(C)[C@H]1C[C@@H](c2ncc(CCC(=O)O)s2)N(C(=O)Cc2cc(Cl)c(NC(=O)c3coc4ccccc34)cc2F)C1 [Example 131] ? Its log10 of Ki was 0.77

So, O=C(O)CCc1cnc([C@@H]2[C@@H](O)CCN2C(=O)Cc2cc(Cl)c(Nc3nc4ccccc4s3)cc2F)s1 [Example 120] ? Its log10 of Ki was 0.99

So, COC1CN([C@H]2C[C@@H](c3ncc(CCC(=O)O)s3)N(C(=O)Cc3cc(Cl)c(NC(=O)c4coc5ccccc45)cc3Cl)C2)C1 [Example 68] ? Its log10 of Ki was -0.14

###

# system name: hα4 and β1 integrins (VLA-4) (Homo sapiens, UniProt P05556+P13612)
# protocol description: In vitro evaluation: inhibition of binding of CHO cells expressing hα4 and β1 integrins to Eu3+-hVCAM-1 D1D7-IgG
# conditions used: ligand Eu3+-hVCAM-1 D1D7-IgG 2 nM, Ki calculated from IC50
endpoint name: pKi
// pKi is dimensionless: -log10 of concentration (M)

So, CO[C@H]1C[C@@H](c2ncc(CCC(=O)O)o2)N(C(=O)Cc2cc(Cl)c(NC(=O)c3csc4ccccc34)cc2Cl)C1 [Example 14] ? Its pKi was 8.40

So, COC[C@@H]1CC[C@@H](c2ncc(CCC(=O)O)s2)N1C(=O)Cc1cc(Cl)c(NC(=O)c2cn(C)c3ccccc23)cc1Cl [Example 54] ? Its pKi was 7.62

So, CO[C@@H]1C[C@@H](c2ncc(CCC(=O)O)s2)N(C(=O)Cc2cc(Cl)c(Nc3nc4ccccc4o3)cc2Cl)C1 [Example 124] ? Its pKi was 7.12

So, COc1ccccc1Nc1nc2ccc(CC(=O)N3C[C@@H](OC)C[C@H]3c3ncc(CCC(=O)O)s3)c(F)c2o1 [Example 10] ? Its pKi was 9.25

So, C[C@@H]1CN([C@H]2C[C@@H](c3ncc(CCC(=O)O)s3)N(C(=O)Cc3cc(Cl)c(NC(=O)c4cn(C)c5ccccc45)cc3F)C2)C[C@H](C)O1 [Example 85] ? Its pKi was 9.00

So, Cn1cc(C(=O)Nc2cc(F)c(CC(=O)N3[C@H](c4ncc(CCC(=O)O)s4)C[C@@H]4CCCC[C@@H]43)cc2Cl)c2ccccc21 [Example 59] ? Its pKi was 7.77

###

Kindly supply the reported pKi values for the records listed here.
# system name: hα4 and β1 integrins (VLA-4) (Homo sapiens, UniProt P05556+P13612)
# protocol description: In vitro evaluation: inhibition of binding of CHO cells expressing hα4 and β1 integrins to Eu3+-hVCAM-1 D1D7-IgG
# conditions used: ligand Eu3+-hVCAM-1 D1D7-IgG 2 nM, Ki calculated from IC50
// pKi is dimensionless: -log10 of concentration (M)

So, CCO[C@H]1CCN(C(=O)Cc2cc(Cl)c(NC(=O)c3csc4ccccc34)cc2F)[C@@H]1c1ncc(CCC(=O)O)s1 ? Its pKi was 8.54

So, CO[C@H]1C[C@@H](c2ncc(CCC(=O)O)o2)N(C(=O)Cc2cc(Cl)c(NC(=O)c3cn(C)c4ccccc34)cc2F)C1 ? Its pKi was 7.77

So, O=C(O)CCc1cnc([C@@H]2CCCN2C(=O)Cc2cc(Cl)c(NC(=O)c3csc4ccccc34)cc2F)s1 ? Its pKi was 9.59

So, O=C(O)CCc1cnc([C@@H]2C[C@H](N3CCN(CC(F)(F)F)CC3)CN2C(=O)Cc2cc(Cl)c(NC(=O)c3csc4ccccc34)cc2F)s1 ? Its pKi was 8.89

So, CCO[C@H]1CCN(C(=O)Cc2cc(Cl)c(NC(=O)c3coc4ccccc34)cc2Cl)[C@@H]1c1ncc(CCC(=O)O)s1 ? Its pKi was 8.19

So, O=C(O)CCc1cnc([C@@H]2C[C@H](N3CCC(F)(F)CC3)CN2C(=O)Cc2cc(Cl)c(NC(=O)c3coc4ccccc34)cc2F)s1 ? Its pKi was 9.14

So, O=C(O)CCc1cnc([C@@H]2C[C@H](N3CCN(CC(F)(F)F)CC3)CN2C(=O)Cc2cc(Cl)c(NC(=O)c3csc4ccccc34)cc2Cl)s1 ? Its pKi was 8.89

So, Cn1cc(C(=O)Nc2cc(Cl)c(CC(=O)N3[C@H](c4ncc(CCC(=O)O)s4)C[C@@H]4CCCC[C@@H]43)cc2Cl)c2ccccc21 ? Its pKi was 8.07

So, CC(C)O[C@H]1C[C@@H](c2ncc(CCC(=O)O)s2)N(C(=O)Cc2cc(Cl)c(NC(=O)c3coc4ccccc34)cc2Cl)C1 ? Its pKi was 8.23

So, CO[C@H]1C[C@@H](c2cc(CCC(=O)O)on2)N(C(=O)Cc2cc(Cl)c(NC(=O)c3cn(C)c4ccccc34)cc2F)C1 ? Its pKi was 8.24

So, COC[C@@H]1CC[C@@H](c2ncc(CCC(=O)O)s2)N1C(=O)Cc1ccc2nc(Nc3cc(F)ccc3C)oc2c1 ? Its pKi was 8.17

So, CCO[C@H]1CCN(C(=O)Cc2ccc3nc(Nc4ccccc4OC)oc3c2)[C@@H]1c1ncc(CCC(=O)O)o1 ? Its pKi was 7.68

So, CCOC1CN([C@H]2C[C@@H](c3ncc(CCC(=O)O)s3)N(C(=O)Cc3cc(Cl)c(NC(=O)c4csc5ccccc45)cc3F)C2)C1 ? Its pKi was 9.30

So, CO[C@@H]1C[C@@H](c2ncc(CCC(=O)O)s2)N(C(=O)Cc2cc(Cl)c(Nc3nc4ccccc4s3)cc2Cl)C1 ? Its pKi was 7.96

So, CO[C@H]1C[C@@H](c2ncc(CCC(=O)O)o2)N(C(=O)Cc2cc(Cl)c(NC(=O)c3cn(C)c4ccccc34)cc2Cl)C1 ? Its pKi was 7.74

So, Cn1cc(C(=O)Nc2cc(Cl)c(CC(=O)N3C[C@@H](OC4CCC4)C[C@H]3c3ncc(CCC(=O)O)s3)cc2Cl)c2ccccc21 ? Its pKi was 8.20

So, O=C(O)CCc1cnc([C@@H]2C[C@H](Oc3cccnc3)CN2C(=O)Cc2cc(Cl)c(NC(=O)c3csc4ccccc34)cc2F)s1 ? Its pKi was 8.80

So, CO[C@H]1C[C@@H](c2ncc(CCC(=O)O)s2)N(C(=O)Cc2cc(Cl)c(Nc3nc4ccccc4o3)cc2F)C1 ? Its pKi was 7.72

So, O=C(O)CCc1cnc([C@@H]2[C@@H](O)CCN2C(=O)Cc2cc(Cl)c(Nc3nc4ccccc4o3)cc2F)s1 ? Its pKi was 7.46

So, CCO[C@H]1CCN(C(=O)Cc2cc(Cl)c(NC(=O)c3csc4ccccc34)cc2Cl)[C@@H]1c1ncc(CCC(=O)O)s1 ? Its pKi was 8.21

So, CCO[C@H]1CCN(C(=O)Cc2cc(Cl)c(NC(=O)c3cn(C)c4ccccc34)cc2Cl)[C@@H]1c1ncc(CCC(=O)O)o1 ? Its pKi was 7.96

So, CO[C@H]1C[C@@H](c2ncc(CCC(=O)O)s2)N(C(=O)Cc2cc(Cl)c(Nc3nc4ccccc4o3)cc2Cl)C1 ? Its pKi was 8.20

So, O=C(O)CCc1cnc([C@@H]2[C@@H](O)CCN2C(=O)Cc2cc(Cl)c(Nc3nc4ccccc4s3)cc2Cl)s1 ? Its pKi was 8.07

So, CO[C@H]1C[C@@H](c2ncc(CCC(=O)O)s2)N(C(=O)Cc2cc(Cl)c(NC(=O)c3cn(C)c4ccccc34)cc2F)C1 ? Its pKi was 9.07

So, O=C(O)CCn1nnc([C@@H]2CCCN2C(=O)Cc2cc(Cl)c(NC(=O)c3csc4ccccc34)cc2F)n1 ? Its pKi was 7.72

So, O=C(O)CCc1cnc([C@@H]2[C@@H](O)CCN2C(=O)Cc2cc(Cl)c(NC(=O)c3csc4ccccc34)cc2Cl)s1 ? Its pKi was 8.46
